molecular target: YES1 (UniProt P07947); experiment: log2 fold change, soluble protein after heating vs DMSO (PISA); higher = thermal stabilisation; K562 cells, 10 uM, 30 min; active = over 0.2 and 3.5 SD of the protein, either way, in both replicates (recomputed)
Sequence (P07947 whole entry, looked up): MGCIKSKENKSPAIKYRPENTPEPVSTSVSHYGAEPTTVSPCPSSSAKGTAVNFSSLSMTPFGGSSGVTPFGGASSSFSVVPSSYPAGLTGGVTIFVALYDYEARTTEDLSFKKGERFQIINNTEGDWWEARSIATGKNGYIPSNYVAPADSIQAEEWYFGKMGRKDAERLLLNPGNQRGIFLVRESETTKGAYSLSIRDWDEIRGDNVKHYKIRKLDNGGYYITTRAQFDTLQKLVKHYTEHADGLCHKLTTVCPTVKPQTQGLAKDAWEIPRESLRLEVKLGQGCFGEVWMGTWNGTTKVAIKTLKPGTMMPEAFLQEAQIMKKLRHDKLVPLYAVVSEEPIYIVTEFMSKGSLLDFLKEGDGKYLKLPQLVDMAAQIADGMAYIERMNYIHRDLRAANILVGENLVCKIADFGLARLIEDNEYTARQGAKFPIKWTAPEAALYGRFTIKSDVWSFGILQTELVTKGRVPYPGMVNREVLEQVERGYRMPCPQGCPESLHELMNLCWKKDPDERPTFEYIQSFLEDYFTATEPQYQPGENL
About 7,900 targets were measured; listed, in parts, are those with a hit and a random draw of the rest. About 0.6% of all pairs of compound and target were hits.
readout kind: log2 fold change
API doc: respond with a numeric literal and nothing else, no unit.

Look up and report measured log2 fold change for this entry: Cn1cc(-c2ccc3nnc(C(F)(F)c4ccc5ncccc5c4)n3n2)cn1
0.008

Hello, please tell me recorded log2 fold change for this one: Cc1ccc(C(=O)N(CCCN)[C@@H](c2nc3cc(Cl)ccc3c(=O)n2Cc2ccccc2)C(C)C)cc1 [ispinesib]
-0.097

Name the recorded log2 fold change of the molecule listed here: CS(=O)(=O)CCNCc1ccc(-c2ccc3ncnc(Nc4ccc(OCc5cccc(F)c5)c(Cl)c4)c3c2)o1 [lapatinib]
0.057

Using the record for c1cc(OCCN2CCCCC2)cc(-c2n[nH]c3ccc(-c4nnc[nH]4)cc23)c1 , state its measured log2 fold change.
-0.235

Fill in log2 fold change for record C[C@H](Nc1ncnc2nc[nH]c12)c1cc2cccc(Cl)c2c(=O)n1-c1ccccc1 [duvelisib]
0.062

Dear colleague, please send me the reported log2 fold change for CNC(=O)c1ccccc1Nc1nc(Nc2ccc(N3CCOCC3)cc2OC)ncc1Cl when you can.
-0.623

Hello, please tell me recorded log2 fold change for this one: C[C@@H](Oc1cc(-c2cnn(C3CCNCC3)c2)cnc1N)c1c(Cl)ccc(F)c1Cl [crizotinib]
-0.576

Write down log2 fold change measured for item Cc1cccc(CC(=O)N2CCc3c2ccc(-c2cn(C)c4ncnc(N)c24)c3F)n1
0.007

Hello, please tell me recorded log2 fold change for this one: Cn1c2cc(S(C)=O)sc2c2cnn(Cc3cccc(N)c3)c(=O)c21 (centres undefined)
0.053

* * *

target: ZCCHC17 (UniProt Q9NP64); test: log2 fold change, soluble protein after heating vs DMSO (PISA); higher = thermal stabilisation; K562 cells, 10 uM, 30 min; active = over 0.2 and 3.5 SD of the protein, either way, in both replicates (recomputed)
Sequence (Q9NP64 whole entry, looked up): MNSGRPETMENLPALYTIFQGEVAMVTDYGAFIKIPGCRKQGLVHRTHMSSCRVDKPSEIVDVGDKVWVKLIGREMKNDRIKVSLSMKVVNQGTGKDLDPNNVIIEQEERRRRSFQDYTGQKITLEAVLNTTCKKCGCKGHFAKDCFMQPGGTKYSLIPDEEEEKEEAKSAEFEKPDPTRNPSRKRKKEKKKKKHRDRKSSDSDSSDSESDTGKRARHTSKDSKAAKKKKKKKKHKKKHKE
About 7,900 targets were measured; listed, in parts, are those with a hit and a random draw of the rest. About 0.6% of all pairs of compound and target were hits.
Hi, to clarify the labels: TRUE covers log2 fold change from -0.06 upward, FALSE covers anything below -0.06.

Please check the record Cc1ccc(NC(=O)c2cccc(C(C)(C)C#N)c2)cc1Nc1ccc2ncn(C)c(=O)c2c1 and state if its log2 fold change is at or above -0.06.
FALSE

Reported log2 fold change at or above -0.06? NC(=O)Nc1cc(-c2cccc(F)c2)sc1C(=O)N[C@H]1CCCNC1
FALSE

Say whether COC(=O)[C@H](CCSC)NC(=O)c1ccc(NC[C@@H](N)CS)cc1-c1ccccc1 shows log2 fold change of -0.06 or more.
TRUE

Form field: log2 fold change at least -0.06? Entry: Nc1ccccc1NC(=O)c1ccc(CNC(=O)OCc2cccnc2)cc1
TRUE

Hello, I need to know if CON(C)C(=O)N1N=C(c2cc(F)ccc2F)S[C@@]1(CCCN)c1ccccc1 has measured log2 fold change not below -0.06. Thanks!
TRUE

Does the reported log2 fold change for CNC(=O)c1ccc(Nc2ncc(C(F)(F)F)c(NCc3nccnc3N(C)S(C)(=O)=O)n2)cc1 fall at or above the -0.06 mark?
TRUE

Entry CN1CCN(c2nc(C3=C(c4c[nH]c5ccccc45)C(=O)NC3=O)c3ccccc3n2)CC1 : is its log2 fold change no less than -0.06?
FALSE
